biological target: Genome polyprotein (dengue virus type 2) (UniProt P29990); experiment: Inhibition of Dengue virus 2 NS2B-NS3 protease using Abz-Nle-Lys-Arg-Arg-Ser-Tyr(3-NO2)-NH2 as substrate at 50 uM preincubated with enzyme for 15 mins followed by substrate addition and measured for 15 mins by FRET assay relative to control; settings: time 30.0 min
Residues, ends and D or L forms follow the SMILES beside them. *: point of attachment. Bz = O=C(c1ccccc1)*; NHiPr = CC(C)N*
Known inhibition of a selection of compounds
metric name: inhibition (%)

>>> test_value("N=C(N)NCCC[C@H](NC(=O)c1ccccc1)C(=O)N[C@@H](CCCCN)C(=O)Nc1ccc(OCc2ccccc2)cc1")
59.8
>>> test_value("N=C(N)NCCC[C@H](NC(=O)c1ccccc1)C(=O)N[C@@H](CCCCN)C(=O)N[C@@H](C(=O)NCc1ccc(C(N)=O)cc1)c1ccc(OCc2ccccc2)cc1")
103
>>> test_value("N=C(N)NCCC[C@H](NC(=O)c1ccccc1)C(=O)N[C@@H](CCCCN)C(=O)N[C@@H](C(=O)NCc1ccc(CN)cc1)c1ccc(OCc2ccccc2)cc1")
99.7
>>> test_value("CC(C)NC(=O)[C@H](CCCCN)NC(=O)[C@H](CCCNC(=N)N)NC(=O)c1ccccc1 (Bz-Arg-Lys-NHiPr)")
28.8
>>> test_value("NCCCC[C@H](NC(=O)c1ccccc1)C(=O)N[C@@H](C(=O)N[C@H](C(N)=O)C1CCCCC1)c1ccc(OCc2ccccc2)cc1")
99.6
>>> test_value("NCCCC[C@H](NC(=O)c1ccccc1)C(=O)N[C@@H](C(=O)N[C@@H](C(N)=O)C1CCCCC1)c1ccc(OCc2ccccc2)cc1")
98

These measurements were taken from ChEMBL document CHEMBL4840342.
